src = the supplement of paper PMC10307832

# System: HCC-827
# test-details: relative viability (nuclei count vs DMSO), 5 days (fraction); higher = more cells survive
# cond: first compound 0.005 µM
I'd be grateful if you could share measured relative viability for these entries.
Keep the answer to the number alone.

Look up relative viability: CC1(C)CCC(c2ccc(Cl)cc2)=C(CN2CCN(c3ccc(C(=O)NS(=O)(=O)c4ccc(N[C@H](CCN5CCOCC5)CSc5ccccc5)c(S(=O)(=O)C(F)(F)F)c4)cc3)CC2)C1 [Navitoclax] + Cc1nc(NC(=O)N2CCC[C@H]2C(N)=O)sc1-c1ccnc(C(C)(C)C(F)(F)F)c1 [Alpelisib] (partner 2 µM)
1.07

Look up relative viability: CC1(C)CCC(c2ccc(Cl)cc2)=C(CN2CCN(c3ccc(C(=O)NS(=O)(=O)c4ccc(N[C@H](CCN5CCOCC5)CSc5ccccc5)c(S(=O)(=O)C(F)(F)F)c4)cc3)CC2)C1 [Navitoclax] + COc1cccc2cc(-c3nc([C@H]4CC[C@H](C(=O)O)CC4)n4ncnc(N)c34)[nH]c12 [OSI-027] (partner 0.5 µM)
0.767

Look up relative viability: CC1(C)CCC(c2ccc(Cl)cc2)=C(CN2CCN(c3ccc(C(=O)NS(=O)(=O)c4ccc(N[C@H](CCN5CCOCC5)CSc5ccccc5)c(S(=O)(=O)C(F)(F)F)c4)cc3)CC2)C1 [Navitoclax] + CC(=O)c1c(C)c2cnc(Nc3ccc(N4CCNCC4)cn3)nc2n(C2CCCC2)c1=O [Palbociclib] (partner 0.5 µM)
0.582

###

# Test system: NCI-H1299
# test-details: relative viability (nuclei count vs DMSO), 5 days (fraction); higher = more cells survive
# cond: first compound 0.01 µM
I'd be grateful if you could share measured relative viability for these entries.
Keep the answer to the number alone.

Look up relative viability: NC(=O)Nc1cc(-c2cccc(F)c2)sc1C(=O)N[C@H]1CCCNC1 [AZD7762] + CC1(C)CCC(c2ccc(Cl)cc2)=C(CN2CCN(c3ccc(C(=O)NS(=O)(=O)c4ccc(N[C@H](CCN5CCOCC5)CSc5ccccc5)c(S(=O)(=O)C(F)(F)F)c4)cc3)CC2)C1 [Navitoclax] (partner 0.5 µM)
1.06

Look up relative viability: NC(=O)Nc1cc(-c2cccc(F)c2)sc1C(=O)N[C@H]1CCCNC1 [AZD7762] + CS(=O)(=O)N1CCN(Cc2cc3nc(-c4cccc5[nH]ncc45)nc(N4CCOCC4)c3s2)CC1 [Pictilisib] (partner 1 µM)
0.98

Look up relative viability: NC(=O)Nc1cc(-c2cccc(F)c2)sc1C(=O)N[C@H]1CCCNC1 [AZD7762] + COc1cc2c(Oc3ccc(NC(=O)C4(C(=O)Nc5ccc(F)cc5)CC4)cc3F)ccnc2cc1OCCCN1CCOCC1 [Foretinib] (partner 0.25 µM)
1.09

Look up relative viability: NC(=O)Nc1cc(-c2cccc(F)c2)sc1C(=O)N[C@H]1CCCNC1 [AZD7762] + C[C@]1(O)C[C@@H](c2nc(-c3ccc4ccc(-c5ccccc5)nc4c3)c3c(N)nccn32)C1 [Linsitinib] (partner 1 µM)
0.99

###

# Tested on: NCI-H2085
# test-details: relative viability (nuclei count vs DMSO), 5 days (fraction); higher = more cells survive
# cond: first compound 0.4 µM
Decide using relative viability alone. Strictly below 0.8: y. Equal to or above 0.8: n.

Just wondering, is relative viability of O=C(O)c1ccc(-c2c[nH]c3ncc(-c4ccccc4)cc23)cc1C1CCCC1 + Cc1cc(Nc2cc(N3CCN(C)CC3)nc(Sc3ccc(NC(=O)C4CC4)cc3)n2)n[nH]1 [Tozasertib] (partner 0.1 µM) below 0.8?
y

Just wondering, is relative viability of O=C(O)c1ccc(-c2c[nH]c3ncc(-c4ccccc4)cc23)cc1C1CCCC1 + CC(C)C[C@H](NC(=O)[C@H](Cc1ccccc1)NC(=O)c1cnccn1)B(O)O [Bortezomib] (partner 0.002 µM) below 0.8?
n

Just wondering, is relative viability of O=C(O)c1ccc(-c2c[nH]c3ncc(-c4ccccc4)cc23)cc1C1CCCC1 + CCNC(=O)c1noc(-c2cc(C(C)C)c(O)cc2O)c1-c1ccc(CN2CCOCC2)cc1 [Luminespib] (partner 0.01 µM) below 0.8?
y

Just wondering, is relative viability of O=C(O)c1ccc(-c2c[nH]c3ncc(-c4ccccc4)cc23)cc1C1CCCC1 + Nc1nc2[nH]cc(CCc3ccc(C(=O)N[C@@H](CCC(=O)O)C(=O)O)cc3)c2c(=O)[nH]1 [Pemetrexed] (partner 0.2 µM) below 0.8?
n
